# tgt: MRGPRX2-MUT (MRGPRX2 N62S mutation) (Homo sapiens, UniProt Q96LB1, N62S)
# Construct: expressed in transfected cells
# Sequence (Q96LB1 whole entry N62S): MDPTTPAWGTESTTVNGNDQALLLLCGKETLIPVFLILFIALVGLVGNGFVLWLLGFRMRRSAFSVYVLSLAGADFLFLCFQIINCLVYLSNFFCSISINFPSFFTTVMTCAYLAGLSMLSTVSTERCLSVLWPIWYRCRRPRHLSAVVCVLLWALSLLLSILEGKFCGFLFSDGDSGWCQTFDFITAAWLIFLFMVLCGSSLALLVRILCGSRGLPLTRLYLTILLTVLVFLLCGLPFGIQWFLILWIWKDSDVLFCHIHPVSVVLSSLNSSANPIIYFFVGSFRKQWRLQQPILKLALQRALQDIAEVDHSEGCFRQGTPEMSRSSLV
# experiment.description: Primary HTS, Ca2+ mobilization (fluorescence ratio, B-score) in HEK293-Gα15 cells stably expressing the MRGPRX2 N62S mutation
# Type: cell-based
# experimental.conditions: 10 μM compound, MRGPRX2-MUT (N62S) cells, Supplementary Table 2
Structures can show the parent of a compound that is named as a salt.
measured.metric: B-scores (MUT)
Kindly provide the number alone.

Q) Reported B-scores (MUT) for MRGPRX2-MUT (MRGPRX2 N62S mutation) (Homo sapiens, UniProt Q96LB1, N62S), given CC(C)(C)NCC(O)c1ccc(O)c(CO)c1.CC(C)(C)NCC(O)c1ccc(O)c(CO)c1.O=S(=O)(O)O (stereo not drawn) [Albuterol sulfate] ?
A) 2.96

Q) Reported B-scores (MUT) for MRGPRX2-MUT (MRGPRX2 N62S mutation) (Homo sapiens, UniProt Q96LB1, N62S), given CN(C)CCC(c1ccc(Br)cc1)c1ccccn1 (stereo not drawn) [Brompheniramine] ?
A) 0.64

Q) Reported B-scores (MUT) for MRGPRX2-MUT (MRGPRX2 N62S mutation) (Homo sapiens, UniProt Q96LB1, N62S), given CN(C)CCCN1c2ccccc2Sc2ccc(Cl)cc21 [Chlorpromazine] ?
A) -0.05

Q) Reported B-scores (MUT) for MRGPRX2-MUT (MRGPRX2 N62S mutation) (Homo sapiens, UniProt Q96LB1, N62S), given CN(C)CCCN1c2ccccc2Sc2ccc(C(F)(F)F)cc21 [Triflupromazine Hydrochloride] ?
A) 0.85

Q) Reported B-scores (MUT) for MRGPRX2-MUT (MRGPRX2 N62S mutation) (Homo sapiens, UniProt Q96LB1, N62S), given CCn1cc(C(=O)O)c(=O)c2cc(F)c(N3CCN(C)CC3)cc21.CS(=O)(=O)O [Pefloxacine Mesylate] ?
A) -0.79

Q) Reported B-scores (MUT) for MRGPRX2-MUT (MRGPRX2 N62S mutation) (Homo sapiens, UniProt Q96LB1, N62S), given CC(=O)c1ccc2c(c1)N(CCCN(C)C)c1ccccc1S2 [Acepromazine] ?
A) 43.26

Q) Reported B-scores (MUT) for MRGPRX2-MUT (MRGPRX2 N62S mutation) (Homo sapiens, UniProt Q96LB1, N62S), given COc1cccc2c1C(=O)c1c(O)c3c(c(O)c1C2=O)C[C@@](O)(C(C)=O)C[C@@H]3O[C@H]1C[C@H](N)[C@H](O)[C@H](C)O1 [Daunorubicin] ?
A) 37.13

Q) Reported B-scores (MUT) for MRGPRX2-MUT (MRGPRX2 N62S mutation) (Homo sapiens, UniProt Q96LB1, N62S), given CC(C)(C)NC[C@H](O)c1ccc(O)c(CO)c1 [Levalbuterol] ?
A) 1.63

Q) Reported B-scores (MUT) for MRGPRX2-MUT (MRGPRX2 N62S mutation) (Homo sapiens, UniProt Q96LB1, N62S), given CC(Cc1ccc(O)cc1)NCC(O)c1cc(O)cc(O)c1 (stereo not drawn) [Fenoterol] ?
A) 13.78

Q) Reported B-scores (MUT) for MRGPRX2-MUT (MRGPRX2 N62S mutation) (Homo sapiens, UniProt Q96LB1, N62S), given CN(C)CC[C@@H](c1ccc(Cl)cc1)c1ccccn1 [Dexchlorpheniramine Maleate] ?
A) 0.56

Q) Reported B-scores (MUT) for MRGPRX2-MUT (MRGPRX2 N62S mutation) (Homo sapiens, UniProt Q96LB1, N62S), given O=C(O)c1cn(C2CC2)c2cc(N3CCNCC3)c(F)cc2c1=O [Ciprofloxacin] ?
A) 1.91

Q) Reported B-scores (MUT) for MRGPRX2-MUT (MRGPRX2 N62S mutation) (Homo sapiens, UniProt Q96LB1, N62S), given CNC[C@H](O)c1ccc(O)c(O)c1 [Epinephrine Bitartrate] ?
A) 11.72

Q) Reported B-scores (MUT) for MRGPRX2-MUT (MRGPRX2 N62S mutation) (Homo sapiens, UniProt Q96LB1, N62S), given CN(C)CCOC(c1ccc(Cl)cc1)c1ccccn1 (stereo not drawn) [Carbinoxamine] ?
A) 0.12

Q) Reported B-scores (MUT) for MRGPRX2-MUT (MRGPRX2 N62S mutation) (Homo sapiens, UniProt Q96LB1, N62S), given CN(C)CCC=C1c2ccccc2CCc2ccccc21 [Amitriptyline hydrochloride] ?
A) 1.83

Q) Reported B-scores (MUT) for MRGPRX2-MUT (MRGPRX2 N62S mutation) (Homo sapiens, UniProt Q96LB1, N62S), given CCn1cc(C(=O)O)c(=O)c2cc(F)c(N3CCNCC3)cc21 [Norfloxacin] ?
A) 0.05

Q) Reported B-scores (MUT) for MRGPRX2-MUT (MRGPRX2 N62S mutation) (Homo sapiens, UniProt Q96LB1, N62S), given CN(C)CCC=C1c2ccccc2COc2ccccc21 [Doxepin Hydrochloride] ?
A) 1.85

Q) Reported B-scores (MUT) for MRGPRX2-MUT (MRGPRX2 N62S mutation) (Homo sapiens, UniProt Q96LB1, N62S), given CN1CC[C@@]23CCCC[C@@H]2[C@@H]1Cc1ccc(O)cc13 [Dextrorphan] ?
A) 68.33

Q) Reported B-scores (MUT) for MRGPRX2-MUT (MRGPRX2 N62S mutation) (Homo sapiens, UniProt Q96LB1, N62S), given COc1ccc(CN(CCN(C)C)c2ccccn2)cc1 [Pyrilamine] ?
A) 0.23
